Test system: A. baumannii ATCC 19606
Assay type: cell-based
condition: ATCC 19606
Protocol: Bacterial strains (E. coli ATCC 29522, S. aureus ATCC 29213, A. baumannii ATCC 19606, and P. aeruginosa ATCC 27853) were grown overnight on LB agar plates at 37 °C. […] For MIC determination, all peptides were measured in triplicates using the protocol described by Wiegand et al. for “antimicrobial peptides that require the presence of acetic acid/BSA”. […] The colonies were counted and 50 colonies were expected on the 1:10,000 plates and 500 on the 1:1000 plates.
Square brackets hold non-standard residues; d marks the D form. Peptide text beside a SMILES is read from it. Bip = N[C@@H](Cc1ccc(-c2ccccc2)cc1)C(=O)O; 2Nal = N[C@@H](Cc1ccc2ccccc2c1)C(=O)O; Dab = NCC[C@H](N)C(=O)O; AEEA = NCCOCCOCC(=O)O
parameter: Minimum inhibitory concentration AB

[[record]]
compound = "NCCCC[C@@H]1NC(=O)[C@H](Cc2ccc3ccccc3c2)NC(=O)COCCOCCNC(=O)[C@H](Cc2ccc(-c3ccccc3)cc2)NC(=O)[C@H](CCCCN)NC(=O)[C@H](CCCCN)NC(=O)[C@H](Cc2ccccc2)NC(=O)[C@H](CCCCN)NC(=O)[C@H](CC(N)=O)NC1=O [compound 5] (cyclo(KFKK[Bip][AEEA][2Nal]KN))"
system_name = "A. baumannii ATCC 19606"
parameter = "Minimum inhibitory concentration AB"
result = ">64 µg/mL"

[[record]]
compound = "N=C(N)NCCC[C@@H]1NC(=O)[C@H](Cc2ccc3ccccc3c2)NC(=O)[C@H](CCCNC(=N)N)NC(=O)[C@H](CC(N)=O)NC(=O)[C@H](CCN)NC(=O)[C@H](Cc2ccc3ccccc3c2)NC(=O)COCCOCCNC(=O)[C@H](Cc2ccc(-c3ccccc3)cc2)NC(=O)[C@H](CCN)NC1=O [compound 15] (cyclo(R[2Nal]R[Dab][Bip][AEEA][2Nal][Dab]N))"
system_name = "A. baumannii ATCC 19606"
parameter = "Minimum inhibitory concentration AB"
result = ">64 µg/mL"

[[record]]
compound = "NCCCC[C@@H]1NC(=O)[C@H](Cc2ccccc2)NC(=O)COCCOCCNC(=O)[C@H](Cc2ccccc2)NC(=O)[C@H](CCCCN)NC(=O)[C@H](CCCCN)NC(=O)[C@H](Cc2ccccc2)NC(=O)[C@H](CCCCN)NC(=O)[C@H](CC(N)=O)NC1=O [compound 8] (cyclo(KFKKF[AEEA]FKN))"
system_name = "A. baumannii ATCC 19606"
parameter = "Minimum inhibitory concentration AB"
result = ">64 µg/mL"


The compound N=C(N)NCCC[C@@H]1NC(=O)[C@H](CC(N)=O)NC(=O)[C@H](CCN)NC(=O)[C@H](Cc2ccc3ccccc3c2)NC(=O)COCCOCCNC(=O)[C@H](Cc2ccccc2)NC(=O)[C@H](CCN)NC(=O)[C@H](CCN)NC(=O)[C@H](Cc2ccc3ccccc3c2)NC1=O [compound 17] (cyclo(R[2Nal][Dab][Dab]F[AEEA][2Nal][Dab]N)) , tested on A. baumannii ATCC 19606, showed Minimum inhibitory concentration AB of >64 µg/mL

The compound NCCCC[C@@H]1NC(=O)[C@H](Cc2ccc3ccccc3c2)NC(=O)COCCOCCNC(=O)[C@H](Cc2ccc(-c3ccccc3)cc2)NC(=O)[C@H](CC(N)=O)NC(=O)[C@H](CCCCN)NC(=O)[C@H](Cc2ccc3ccccc3c2)NC(=O)[C@H](CCCCN)NC(=O)[C@H](CCCCN)NC1=O [compound 2] (cyclo(K[2Nal]KN[Bip][AEEA][2Nal]KK)) , tested on A. baumannii ATCC 19606, showed Minimum inhibitory concentration AB of >64 µg/mL

The compound N=C(N)NCCC[C@@H]1NC(=O)[C@H](Cc2ccc3ccccc3c2)NC(=O)[C@H](CCN)NC(=O)[C@H](CC(N)=O)NC(=O)[C@H](CCN)NC(=O)[C@H](Cc2ccc3ccccc3c2)NC(=O)COCCOCCNC(=O)[C@H](Cc2ccccc2)NC(=O)[C@H](CCN)NC1=O [compound 18] (cyclo([Dab][2Nal]R[Dab]F[AEEA][2Nal][Dab]N)) , tested on A. baumannii ATCC 19606, showed Minimum inhibitory concentration AB of >64 µg/mL

---

Tested on: A. baumannii ATCC 19606
Type: cell-based
condition: ATCC 19606
Square brackets hold non-standard residues; d marks the D form. Peptide text beside a SMILES is read from it. Bip = N[C@@H](Cc1ccc(-c2ccccc2)cc1)C(=O)O; 2Nal = N[C@@H](Cc1ccc2ccccc2c1)C(=O)O; Dab = NCC[C@H](N)C(=O)O; AEEA = NCCOCCOCC(=O)O
Reported values of Minimum inhibitory concentration AB for individual entries
Return type: number; implicit unit µg/mL.

A selection of reference data follows.
[[record]]
compound = "NCCCC[C@@H]1NC(=O)[C@H](Cc2ccc3ccccc3c2)NC(=O)COCCOCCNC(=O)[C@H](Cc2ccc(-c3ccccc3)cc2)NC(=O)[C@H](CCCCN)NC(=O)[C@H](CC(N)=O)NC(=O)[C@H](Cc2ccc3ccccc3c2)NC(=O)[C@H](CCCCN)NC(=O)[C@H](CCCCN)NC1=O [compound 3] (cyclo(K[2Nal]NK[Bip][AEEA][2Nal]KK))"
system_name = "A. baumannii ATCC 19606"
quantitative_result = 64

[[record]]
compound = "N=C(N)NCCC[C@@H]1NC(=O)[C@H](Cc2ccc3ccccc3c2)NC(=O)[C@H](CCCNC(=N)N)NC(=O)[C@H](CC(N)=O)NC(=O)[C@H](CCN)NC(=O)[C@H](Cc2ccc3ccccc3c2)NC(=O)COCCOCCNC(=O)[C@H](Cc2ccccc2)NC(=O)[C@H](CCN)NC1=O [compound 16] (cyclo(R[2Nal]R[Dab]F[AEEA][2Nal][Dab]N))"
system_name = "A. baumannii ATCC 19606"
quantitative_result = 64


// next item, Minimum inhibitory concentration AB requested
Record summary for NCCCC[C@@H]1NC(=O)[C@H](Cc2ccc3ccccc3c2)NC(=O)COCCOCCNC(=O)[C@H](Cc2ccc(-c3ccccc3)cc2)NC(=O)[C@H](CCCCN)NC(=O)[C@H](CCCCN)NC(=O)[C@H](Cc2ccc3ccccc3c2)NC(=O)[C@H](CC(N)=O)NC(=O)[C@H](CCCCN)NC1=O [compound 4] (cyclo(N[2Nal]KK[Bip][AEEA][2Nal]KK)) : reported Minimum inhibitory concentration AB = 64
